# assay_target: T1, His-tagged human CD38 (ACRO Biosystems cat #CD8-H5224) (human, UniProt P28907 43-300)
# T1 construct: bought recombinant protein with His tag
# assay_name: ELISA, coated His-CD38
assay_endpoint: ELISA 1 ug/ml

[[record]]
binder = "40566p1.B11 (scFv, V domains shown, tested as scFv-Fc supernatant) VH: DVQLVESGGGLVRPGESLRLSCAASGFTFDNYDMTWVRQAPGEGLEWVSFISSRGTFTYYTDSVKGRFTISRDNSKNTLYLQMNSLRAEDTAIYYCAKDSGEYYFFDYWGLGTLVTVSS VL: EIVMTQSPATLSVSPGERATFSCRASQSVNSKLAWYQQKPGQAPRLLIYGASRRATGIPDRFSESGSGTEFTLTISSLQSEDFAVYYCQQYHDWPPLTFGGGTKVEIK"
recorded_number = 1.43

[[record]]
binder = "40566p1.F1 (scFv, V domains shown, tested as scFv-Fc supernatant; also called 40566p1.Fl) VH: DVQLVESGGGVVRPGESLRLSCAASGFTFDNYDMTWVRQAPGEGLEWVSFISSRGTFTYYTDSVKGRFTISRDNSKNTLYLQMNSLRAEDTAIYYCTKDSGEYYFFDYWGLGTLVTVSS VL: ETVMTQSPATLSVSPGERATFSCRASQSVNGKLAWYQQKPGQAPRLLIYDASRRATGIPDRFSGSGSGTEFTLTISSLQSEDFAVYYCQQYYDWPPLTFGGGTKVEIK"
recorded_number = 1.83

[[record]]
binder = "40617p1.2.A1 (scFv, V domains shown, tested as scFv-Fc supernatant) VH: EVQLLESGGGLVQPGGSLRLSCAASGFTFSSYWMTWVRQAPGKGLEWVSAISSYGGQYTYYADSVKGRFTISRDNSKDTLYLHMDSLRAEDTAVYYCAKDWDDGMDVWGQGTTVTVSS VL: EIVMTQSPAVLSVSPGERATLSCRASQSVNIKLAWYQQKPGQAPRLLIYGASTRAAGIPDRFSGSGSGTDFTLTISSLQSDDFAVYYCQQYYDLPPYSFGGGTKVEIK"
recorded_number = 1.57

[[record]]
binder = "40566p1.B3 (scFv, V domains shown, tested as scFv-Fc supernatant) VH: DVQLVESGGGVVRPGESLRLSCAASGFTFDNYDMTWVRQAPGEGLEWVSFISSRGTFTYYTDSVRGRFTISRDNSKNTLYLEMNSLRAEDTAIYYCAKDSGEYYFFDYWGLGTLVTVSS VL: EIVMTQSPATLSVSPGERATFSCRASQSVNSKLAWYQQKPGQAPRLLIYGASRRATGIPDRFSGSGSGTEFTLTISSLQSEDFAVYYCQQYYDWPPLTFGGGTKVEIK"
recorded_number = 1.89

[[record]]
binder = "40617p1.2.H1 (scFv, V domains shown, tested as scFv-Fc supernatant) VH: EVQLLESGGGLVQPGGSLRLSCAASGFTFTNYWMTWVRQAPGKGLEWVSAISSYGGNYMYYADSVKGRFTISRDNSENTLYLQMNSLRAEDTAVYYCAKDWDDGMDVWGQGTTVTVSS VL: EIVMTQSPAVLSVSPGERATLSCRASQTVGSKLAWYQQKPGQAPRLLIYGVSTRAAGIPDRFSGSGSGTDFTLTISSLQSEDFAVYYCQQYYDLPPYSFGGGTKVEIK"
recorded_number = 1.81

